tested on: H. contortus susceptible strain; assay: Larval migration inhibition test (LMIT); parameters: species or system Haemonchus contortus; settings: Haemonchus contortus, 24 h, L3, 100 μM, NE = Not Effective at 100 μM, control ivermectin 8.75 µg/mL
Please respond with reported inhibition at 100 µM for every item in the list.

// field: inhibition at 100 µM; key: CCc1nn(C)c(C(=O)NCc2ccc(Oc3ccc(C)cc3)cc2)c1Cl [Tolfenpyrad] ; value = 9%

Memo: CC[C@@H](C(=O)[C@@H](C)[C@@H](O)[C@H](C)[C@@H]1O[C@@H]([C@@H](CC)C(=O)O)CC[C@@H]1C)[C@H]1O[C@]2(C=C[C@@H](O)[C@]3(CC[C@@](C)([C@H]4CC[C@](O)(CC)[C@H](C)O4)O3)O2)[C@H](C)C[C@@H]1C [Salinomycin, reference compound] , reported inhibition at 100 µM: 0%

Looking up CC1(C)CCC[C@]2(C)[C@@H](C=O)C(C=O)=CC[C@@H]12 [Polygodial] , I see its inhibition at 100 µM listed as 0%

Please fill in: inhibition at 100 µM reported for N=C(N/N=C/c1ccc(Cl)cc1)N/N=C/c1ccc(Cl)cc1 [Robenidine, reference compound] = 3.1%

For Oc1ccc(/C=C/c2cc(O)cc(O)c2)cc1 [Resveratrol] the compound record lists inhibition at 100 µM as 0%

Take each entry in turn and give its inhibition at 100 µM.
1. CCCCCCCCN=c1ccn(CCCCCCCCCCn2ccc(=NCCCCCCCC)cc2)cc1 [Octenidine, reference compound]
2. C[C@@H]1CC[C@@]2(OC1)O[C@H]1C[C@H]3[C@@H]4CC=C5C[C@@H](O[C@@H]6O[C@H](CO)[C@@H](O[C@@H]7O[C@@H](C)[C@H](O)[C@@H](O)[C@H]7O)[C@H](O)[C@H]6O[C@@H]6O[C@@H](C)[C@H](O)[C@@H](O)[C@H]6O)CC[C@]5(C)[C@H]4CC[C@]3(C)[C@H]1[C@@H]2C [Dioscin]

1: 98.3%; 2: 0%
